- targetUnderTest: UniProt O75608
- Sequence (O75608 whole entry): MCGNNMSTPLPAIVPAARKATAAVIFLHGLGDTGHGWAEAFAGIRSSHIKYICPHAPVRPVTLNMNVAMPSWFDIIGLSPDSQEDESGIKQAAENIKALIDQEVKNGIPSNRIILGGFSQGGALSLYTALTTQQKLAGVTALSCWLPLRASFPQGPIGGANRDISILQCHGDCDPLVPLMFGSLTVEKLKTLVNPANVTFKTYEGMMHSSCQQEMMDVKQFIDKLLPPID
- testSummary: Inhibition of APT1 (unknown origin)
pIC50: −log10 of the molar value.
endpointName: pIC50

1) CCCCCCCCCC[C@@H]1C(=O)O[C@H]1CCc1ccc(OC)c(OC)c1 8.27

----------
- targetUnderTest: Acyl-protein thioesterase 2 (Homo sapiens, UniProt O95372)
- Sequence (O95372 whole entry): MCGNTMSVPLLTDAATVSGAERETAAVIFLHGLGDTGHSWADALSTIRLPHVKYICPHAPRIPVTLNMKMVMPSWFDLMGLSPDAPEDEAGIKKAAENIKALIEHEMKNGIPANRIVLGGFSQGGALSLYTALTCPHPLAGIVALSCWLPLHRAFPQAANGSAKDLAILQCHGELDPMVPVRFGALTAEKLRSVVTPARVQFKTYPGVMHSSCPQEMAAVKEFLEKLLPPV
- testSummary: Inhibition of APT2 (unknown origin) by FluPol-ABPP assay
pKi: −log10 of the molar value.
endpointName: pKi

1. COc1ccc(N2CCN(C(=O)c3cc4c(s3)-c3ccccc3S(=O)(=O)C4)CC2)cc1 6.64

----------
- targetUnderTest: Acyl-protein thioesterase 2 (Homo sapiens)
- testSummary: Inhibition of human APT2

compoundStructureString	IC50, nM
O=C(N1CCCCC1)n1ncc(C(O)(c2ccccc2)c2ccccc2)n1	200
CC(C)(C)C1CCN(C(=O)n2ncc(C(O)(c3ccccc3)c3ccccc3)n2)CC1	30
